Values from ChEMBL document CHEMBL6127027

molecular target: Dual specificity mitogen-activated protein kinase kinase 1 (Homo sapiens); assay: Inhibition of MAP2K1 (unknown origin)
Sequence (Q02750 whole entry): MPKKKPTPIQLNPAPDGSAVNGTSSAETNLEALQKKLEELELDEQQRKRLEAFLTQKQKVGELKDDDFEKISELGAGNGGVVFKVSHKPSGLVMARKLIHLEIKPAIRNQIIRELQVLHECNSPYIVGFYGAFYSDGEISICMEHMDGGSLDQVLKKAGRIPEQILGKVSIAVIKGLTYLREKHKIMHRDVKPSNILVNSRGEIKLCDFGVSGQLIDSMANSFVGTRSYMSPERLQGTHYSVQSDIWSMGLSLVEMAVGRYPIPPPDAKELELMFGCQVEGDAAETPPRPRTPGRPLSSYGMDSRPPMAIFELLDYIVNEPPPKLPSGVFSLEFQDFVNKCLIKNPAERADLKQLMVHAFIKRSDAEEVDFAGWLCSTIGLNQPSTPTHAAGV
pIC50: −log10 of the molar value.

[
  {
    "Smiles": "COc1cc(O)c2c(c1)/C=C/C[C@H](O)[C@H](O)C(=O)CCC[C@H](C)OC2=O",
    "pIC50": 5.28
  }
]

* * *

Biological target: Dual specificity mitogen-activated protein kinase kinase 4 (Homo sapiens)
Sequence (P45985 whole entry): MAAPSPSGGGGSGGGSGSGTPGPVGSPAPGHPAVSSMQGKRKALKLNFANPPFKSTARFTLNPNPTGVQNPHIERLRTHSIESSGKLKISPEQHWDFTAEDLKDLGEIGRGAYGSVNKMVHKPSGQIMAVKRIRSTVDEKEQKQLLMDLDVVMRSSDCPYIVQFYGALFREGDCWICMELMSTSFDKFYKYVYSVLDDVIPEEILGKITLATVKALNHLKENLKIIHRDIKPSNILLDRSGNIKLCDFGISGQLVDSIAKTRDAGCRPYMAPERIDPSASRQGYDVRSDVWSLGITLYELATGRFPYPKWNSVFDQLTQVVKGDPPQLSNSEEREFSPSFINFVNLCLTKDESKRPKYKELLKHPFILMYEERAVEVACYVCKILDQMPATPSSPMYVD
Assay: Inhibition of MAP2K4 (unknown origin)
Metric name: IC50 (µM)

[
  {
    "Smiles": "COc1cc(O)c2c(c1)/C=C/C[C@H](O)[C@H](O)C(=O)/C=C\\C[C@H](C)OC2=O",
    "Measured": 4.7
  }
]
